System: HIV-1 wild-type (WT) strain (IIIB)
Assay: Anti-HIV activity in MT-4 cells (MTT method), HIV-1 IIIB
Format: cell-based
Details: Human immunodeficiency virus 1, IIIB, MT4, read-out: EC50 IIIB
Answer each item with its documented EC50.
Kindly answer with a numeric value in nM, unit omitted.

Lookup: What value of EC50 has been reported for the following molecule? O=C1Nc2ccc(Cl)cc2[C@@](C#CC2CC2)(C(F)(F)F)O1 [EFV, efavirenz, reference compound]
Found: 6

Lookup: What value of EC50 has been reported for the following molecule? Cc1cc(C#N)cc(C)c1Oc1nc(Nc2ccc(NC(=O)C(Cc3c[nH]c4ccccc34)NC(=O)OC(C)(C)C)cc2)nc2ccsc12 (stereo not shown) [5a]
Found: 940

Lookup: What value of EC50 has been reported for the following molecule? CNCC(=O)Nc1ccc(Nc2nc(Oc3c(C)cc(C#N)cc3C)c3sccc3n2)cc1 [5j]
Found: 242

Lookup: What value of EC50 has been reported for the following molecule? Cc1cc(C#N)cc(C)c1Oc1nc(Nc2ccc(NC(=O)C(N)Cc3c[nH]c4ccccc34)cc2)nc2ccsc12 (stereo not shown) [5b]
Found: 89
